Reference source: ChEMBL document CHEMBL3885861

- Organism: Rattus norvegicus
- protocol-text: Open TG-GATES - Regimen: Single
- Format: toxicity, organism-based, Sprague-Dawley
- Set-up: regimen Single, gender Male, age 6 weeks
- study-conditions: in vivo, po, 0 mg/kg, 24 h, tissue Plasma, route gavage, dose level Control
# strict inequality: AST < 70 IU/L yields yes (1), everything else yields no (0)

# compound, assigned-class
rows = [
    ("Oc1ncnc2[nH]ncc12", "yes (1)"),
    ("CC(=N)S [THIOACETAMIDE]", "yes (1)"),
    ("C[C@](N)(Cc1ccc(O)c(O)c1)C(=O)O", "no (0)"),
    ("O=C(N[C@H](CO)[C@H](O)c1ccc([N+](=O)[O-])cc1)C(Cl)Cl", "no (0)"),
    ("CC(C)(S)[C@@H](N)C(=O)O", "no (0)"),
    ("Nc1nc(N)c2nc(-c3ccccc3)c(N)nc2n1", "no (0)"),
    ("C#C[C@]1(O)CC[C@H]2[C@@H]3CCc4cc(O)ccc4[C@H]3CC[C@@]21C", "no (0)"),
    ("CN1C(=O)OC(C)(C)C1=O", "no (0)"),
    ("CCc1oc2ccccc2c1C(=O)c1cc(I)c(O)c(I)c1", "yes (1)"),
    ("CC(=O)Oc1cc(C(C)C)c(OCCN(C)C)cc1C", "no (0)"),
]
